Give measured IC50 for each item. Keep answers brief.
target-or-test-system: T1, wild-type human PTH/PTHrP receptor (hP1R-WT) (human, UniProt Q03431 27-593)
T1 construct: whole, on cells; HKRK-B28 cells express ~280,000 receptors per cell; also called PTH-1 receptor; PTH-1R
T1 sequence (looked up): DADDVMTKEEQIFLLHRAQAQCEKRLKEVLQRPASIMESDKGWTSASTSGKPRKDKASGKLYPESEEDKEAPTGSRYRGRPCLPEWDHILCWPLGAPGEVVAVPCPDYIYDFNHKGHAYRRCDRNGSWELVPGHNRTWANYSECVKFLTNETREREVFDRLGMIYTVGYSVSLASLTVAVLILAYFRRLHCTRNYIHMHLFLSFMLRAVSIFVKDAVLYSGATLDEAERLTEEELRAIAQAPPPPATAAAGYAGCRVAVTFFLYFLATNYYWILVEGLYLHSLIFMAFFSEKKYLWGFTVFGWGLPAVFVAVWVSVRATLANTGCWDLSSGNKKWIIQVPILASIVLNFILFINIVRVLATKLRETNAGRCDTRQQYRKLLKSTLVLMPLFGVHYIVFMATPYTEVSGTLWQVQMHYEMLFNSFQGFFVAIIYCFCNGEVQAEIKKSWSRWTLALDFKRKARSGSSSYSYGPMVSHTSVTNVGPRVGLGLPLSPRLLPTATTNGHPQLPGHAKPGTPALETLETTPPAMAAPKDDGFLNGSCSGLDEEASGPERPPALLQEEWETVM
test-details: competition binding, 125I-[M]PTH(1-21) tracer, HKRK-B28 cells, 4 h at 4 C
Square brackets hold non-standard residues; d marks the D form. Ends that are not written are not given here. hArg = N=C(N)NCCCC[C@H](N)C(=O)O; Aib = CC(C)(N)C(=O)O
# output: bare number, implied unit µM

Query AV[Aib]EIQLMHQ[hArg]AKW-NH2 (N-terminus assumed; SMILES CC[C@H](C)[C@H](NC(=O)[C@H](CCC(=O)O)NC(=O)C(C)(C)NC(=O)[C@@H](NC(=O)[C@H](C)N)C(C)C)C(=O)N[C@@H](CCC(N)=O)C(=O)N[C@@H](CC(C)C)C(=O)N[C@@H](CCSC)C(=O)N[C@@H](Cc1c[nH]cn1)C(=O)N[C@@H](CCC(N)=O)C(=O)N[C@@H](CCCCNC(=N)N)C(=O)N[C@@H](C)C(=O)N[C@@H](CCCCN)C(=O)N[C@@H](Cc1c[nH]c2ccccc12)C(N)=O, also called 624 Aib-3) [[Aib^3,M]PTH(1-14)] yields IC50 of 1.7

Query AVAEIQLMHQ[hArg]AKW-NH2 (N-terminus assumed; SMILES CC[C@H](C)[C@H](NC(=O)[C@H](CCC(=O)O)NC(=O)[C@H](C)NC(=O)[C@@H](NC(=O)[C@H](C)N)C(C)C)C(=O)N[C@@H](CCC(N)=O)C(=O)N[C@@H](CC(C)C)C(=O)N[C@@H](CCSC)C(=O)N[C@@H](Cc1c[nH]cn1)C(=O)N[C@@H](CCC(N)=O)C(=O)N[C@@H](CCCCNC(=N)N)C(=O)N[C@@H](C)C(=O)N[C@@H](CCCCN)C(=O)N[C@@H](Cc1c[nH]c2ccccc12)C(N)=O, X = Har; also called [M]PTH(1-14); 621 [M]PTH(1-14)) [[Ala^3,12,Gln^10,Har^11,Trp^14]PTH(1-14)amide] yields IC50 of 13
